B1: LINE1-full (parent)
chain: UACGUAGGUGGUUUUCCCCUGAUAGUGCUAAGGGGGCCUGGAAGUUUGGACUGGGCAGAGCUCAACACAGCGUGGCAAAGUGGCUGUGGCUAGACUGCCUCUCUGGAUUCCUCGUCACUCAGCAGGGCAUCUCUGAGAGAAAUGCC

# Variants of: B1
# run description: self-cleavage, relative activity (ratio to wild type); higher = more cleavage; in vitro, sequencing; the parent is a self-cleaving ribozyme
The following variants are listed with their measured self-cleavage values.
No unit in the answer, please; the number alone is enough.

Study these solved cases before continuing.
A42G U96G : 0
A2U A129G : 0.72
A42U U81A : 1.39

Determine from records and report self-cleavage for G83A U132A
1.09

Determine from records and report self-cleavage for C19U A141G
0.99

Determine from records and report self-cleavage for G33A U45A
0.86
